Value source: PubChem BioAssay (NCI)

System: 786-0 renal
Experiment: NCI-60 one-dose screen, 48 h (100 = growth as untreated, 0 = no growth, -100 = all killed)
Settings: 10 µM unless noted
The panel holds about 83,000 compounds, 20% with a hit somewhere; the sample as a whole holds those more often.
Assign MET to entries whose growth meets or exceeds 60%; assign NOT MET to the rest.

# COMPOUND, TARGET, CLASS NAME
measured = [
    ("Nc1[nH]c(=S)nc2oc(-c3ccccc3)c(-c3ccccc3)c12", "786-0 renal", "MET"),
    ("Cc1nc2sc(C(=O)Nc3cccc(Br)c3C)c(N)c2cc1C(O)c1ccccc1 (stereo not given)", "786-0 renal", "NOT MET"),
    ("O=S1(=O)C=C(c2ccccc2)C(c2ccccc2)=C1", "786-0 renal", "NOT MET"),
    ("O=C(Nc1ccccc1O)c1ccc(CNC(=O)c2ccsc2Nc2ccnc(C(F)(F)F)c2)cc1", "786-0 renal", "NOT MET"),
    ("N#Cc1nc(-c2ccccc2)oc1S(=O)(=O)N1CCN(c2ccc(F)cc2)CC1", "786-0 renal", "MET"),
]
